Biological target: cellular PARG (Homo sapiens, UniProt Q86W56)
Construct: endogenous in cells
Sequence (Q86W56 whole entry): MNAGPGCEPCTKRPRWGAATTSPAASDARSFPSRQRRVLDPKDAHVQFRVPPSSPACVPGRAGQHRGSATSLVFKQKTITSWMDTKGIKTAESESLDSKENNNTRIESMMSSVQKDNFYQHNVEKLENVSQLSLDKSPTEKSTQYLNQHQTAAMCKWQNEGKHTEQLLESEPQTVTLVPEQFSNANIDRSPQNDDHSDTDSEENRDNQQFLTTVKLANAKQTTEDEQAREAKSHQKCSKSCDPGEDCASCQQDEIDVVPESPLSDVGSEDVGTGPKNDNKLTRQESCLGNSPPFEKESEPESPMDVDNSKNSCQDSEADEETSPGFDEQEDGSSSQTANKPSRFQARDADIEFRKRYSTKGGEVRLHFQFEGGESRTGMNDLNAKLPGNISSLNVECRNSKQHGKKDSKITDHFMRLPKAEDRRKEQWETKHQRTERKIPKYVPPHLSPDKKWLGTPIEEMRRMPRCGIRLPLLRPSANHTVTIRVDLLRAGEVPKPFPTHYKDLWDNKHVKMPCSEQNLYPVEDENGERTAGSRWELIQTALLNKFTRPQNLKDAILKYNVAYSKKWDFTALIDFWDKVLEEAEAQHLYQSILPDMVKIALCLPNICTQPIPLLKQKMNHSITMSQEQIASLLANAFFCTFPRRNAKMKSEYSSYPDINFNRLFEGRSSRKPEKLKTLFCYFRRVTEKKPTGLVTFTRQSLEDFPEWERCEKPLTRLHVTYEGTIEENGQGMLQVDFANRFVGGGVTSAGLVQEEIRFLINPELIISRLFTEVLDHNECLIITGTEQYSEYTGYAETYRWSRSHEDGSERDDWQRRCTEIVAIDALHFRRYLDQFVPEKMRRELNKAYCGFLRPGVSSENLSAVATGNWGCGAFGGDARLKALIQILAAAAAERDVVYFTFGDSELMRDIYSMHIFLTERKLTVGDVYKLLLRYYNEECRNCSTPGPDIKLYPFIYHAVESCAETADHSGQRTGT
Experiment: Nuclear PAR accumulation assay (immunofluorescence high-content imaging)
Conditions: HeLa cells, 1 hour compound treatment then MMS 50 μg/mL for an additional hour
endpoint.label: IC50

1. C#C[C@H]1CN=C2N(Cc3cnn(C)c3)C(=O)c3cc(S(=O)(=O)NC4(C)CC4)ccc3N21; 100 to 1000 nM
2. CC[C@@H]1CN=C2N(Cc3c(C)noc3C)C(=O)c3cc(S(=O)(=O)NC4(C)CC4)ccc3N21; ≤ 100 nM
3. Cn1cc(CN2C(=O)c3cc(S(=O)(=O)NC4(C)CC4)ccc3N3C2=N[C@H]2CCC[C@H]23)cn1; ≤ 100 nM
4. CC[C@H]1CN=C2N(Cc3cnc(C)s3)C(=O)c3cc(S(=O)(=O)NC4(C)CC4)ccc3N21; 1000 to 10000 nM
5. C[C@@H]1CN=C2N(Cc3cnn(C)c3)C(=O)c3cc(S(=O)(=O)NC4(C#N)CC4)ccc3N21; 100 to 1000 nM
6. C#C[C@H]1CN=C2N(Cc3cc(C)no3)C(=O)c3cc(S(=O)(=O)NC4(C)CC4)ccc3N21; 100 to 1000 nM
7. CCC1CN=C2N(C)C(=O)c3cc(S(=O)(=O)NC4(C)CC4)ccc3N21 (centres unmarked); 100 to 1000 nM
8. Cc1nnsc1CN1C(=O)c2cc(S(=O)(=O)NC3(C)CC3)ccc2N2C1=NC[C@H]2C; ≤ 100 nM

---

Target: cellular PARG (Homo sapiens, UniProt Q86W56)
Construct: endogenous in cells
Test: Nuclear PAR accumulation assay (immunofluorescence high-content imaging)
Conditions: HeLa cells, 1 hour compound treatment then MMS 50 μg/mL for an additional hour
pIC50: −log10 of the molar value.
endpoint.label: pIC50

1) C[C@@H]1CN=C2N(Cc3cnn(C)c3)C(=O)c3cc(S(=O)(=O)NC4(C)CC4)cc(-c4ccc(F)nc4)c3N21; ≥ 7.00
2) COC[C@@H]1CN=C2N(Cc3cnn(C)c3)C(=O)c3cc(S(=O)(=O)NC4(C)CC4)ccc3N21; ≥ 7.00
3) C[C@@H]1CN=C2N(Cc3cnn(C)c3)C(=O)c3cc(S(=O)(=O)NC4(C)CC4)cc(Br)c3N21; ≥ 7.00
4) CCN1C(=O)c2cc(S(=O)(=O)NC3(C)CC3)ccc2N2C1=NC[C@H]2C(C)C; 6.00 to 7.00

---

Reported IC50 values are given for each entry in this list.
Target: cellular PARG (Homo sapiens)
Construct: endogenous in cells
Assay: Nuclear PAR accumulation assay (immunofluorescence high-content imaging)
Conditions: HeLa cells, 1 hour compound treatment then MMS 50 μg/mL for an additional hour
endpoint.label: IC50

1. Cn1cc(CN2C(=O)c3cc(S(=O)(=O)NC4(C)CC4)ccc3N3C2=NC[C@H]3CN)cn1 [Example 97]; 100 to 1000 nM
2. CC(c1cnn(C)c1)N1C(=O)c2cc(S(=O)(=O)NC3(C)CC3)ccc2N2C1=NC[C@H]2C (single isomer, unassigned) [Example 126]; 1000 to 10000 nM
3. C[C@@H]1CN=C2N(Cc3cnn(C)c3)C(=O)c3cc(S(=O)(=O)NC4(C)CC4)cc(C#N)c3N21 [Example 138]; 100 to 1000 nM
4. CCN1C(=O)c2cc(S(=O)(=O)NC3(C)CC3)ccc2N2C1=NC[C@H]2C [Example 47]; 100 to 1000 nM
5. CC(c1cnn(C)c1)N1C(=O)c2cc(S(=O)(=O)NC3(C)CC3)ccc2N2C1=NC[C@H]2C (single isomer, unassigned) [Example 125]; 1000 to 10000 nM
6. C[C@@H]1CN=C2N(Cc3cnn(CCO)c3)C(=O)c3cc(S(=O)(=O)NC4(C)CC4)ccc3N21 [Example 1]; 100 to 1000 nM
7. Cc1nc(C)c(CN2C(=O)c3cc(S(=O)(=O)NC4(C)CC4)ccc3N3C2=NC[C@H]3C)[nH]1 [Example 120]; 1000 to 10000 nM
